Assay: enhancers of RGS4 function in calcium signaling – cell-based, HEK293 M3R inducible RGS4, calcium flux, primary screen (AID 463111)
Conditions: HEK293 M3R/inducible RGS4, carbachol calcium flux Fluo4, at 10 µM
In all, about 310,000 compounds went through this assay and about 2,800 (0.9%) were called active.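 Rule for the calls: active = B-score of the integrated calcium signal more than 4 SD below the library mean, with starting fluorescence not abnormally high; inactive = the rest.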 The list comes from a sample in which actives are over-represented; it also holds close analogues and randomly drawn compounds.
I would appreciate it if you answered using one of these outcomes: T for active, F for inactive

Solved cases (6 shown):
compound: Cn1nnnc1SCC(=O)Nc1nc2ccccc2s1
label_class: T
--
compound: O=C(c1ccccc1Oc1ccccc1)N1CCN(c2ccc(F)cc2)CC1
label_class: F
--
compound: COc1cccc(CNC(=O)CCC2CCCN(C(=O)c3ccc(F)c(Cl)c3)C2)c1 (centres undefined)
label_class: F
--
compound: Cc1ccc(Cl)c(OCC(=O)NN2CCN(C)CC2)c1
label_class: F
--
compound: CCOc1ccc(CNC(=O)C2CCC(=O)N2C2CCCC2)cc1OC (centres undefined)
label_class: F
--
compound: Cc1cc(C)n(Cc2cnc(N3CCOCC3)s2)n1
label_class: F

Data request: Give the logged outcome of this assay for the following compound: CCOC(=O)c1ccc(-n2c(CCC(=O)O)ccc2-c2ccccc2)cc1
Data returned: F

Data request: Thanks! And Cc1ccc(OCCCCN2CCCCC2)c(Br)c1 ?
Data returned: T

Data request: CCS(=O)(=O)Nc1ccc(C2=NN(C(C)=O)C(c3cccs3)C2)cc1 (centres undefined) , same question.
Data returned: F

Data request: // repeat for CCOC(=O)C1C(c2ccc(OC)c(OC)c2)c2c([nH][nH]c2=O)CC1(C)O (centres undefined) and report
Data returned: F

Data request: Can you check CC(C)Cn1c(CCC(=O)O)ccc1-c1cccs1 next?
Data returned: T

Data request: Thanks! And O=C(/C=C/c1ccc(F)cc1)Nc1cccc(S(=O)(=O)Nc2cccc(C(F)(F)F)c2)c1 ?
Data returned: F

* * *

Assay: enhancers of RGS4 function in calcium signaling – cell-based, HEK293 M3R inducible RGS4, calcium flux, primary screen (AID 463111)
Details: HEK293 M3R/inducible RGS4, carbachol calcium flux Fluo4, at 10 µM
Among all 310,000 compounds or so, about 2,800 (0.9%) were called active.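 Rule for the calls: active = B-score of the integrated calcium signal more than 4 SD below the library mean, with starting fluorescence not abnormally high; inactive = the rest.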 Many of the other results were omitted from the sample, so actives are more common in it than they were.
Give one outcome, nothing more. List: 1 = active, 0 = inactive

Data request: Dear all, I need the recorded test outcome for N#Cc1ccc(/C=C2\CCn3c2nc2cc(C(=O)O)ccc2c3=O)cc1 , thank you.
Data returned: 0

Data request: Now give it for Cc1ccc(-c2nn(-c3ccccc3)cc2C(=O)NCCCN2CCCC2=O)cc1 too.
Data returned: 0

Data request: Proceed to COc1ccc(C2c3ccc(O)cc3Oc3ncn(CCCO)c(=N)c32)cc1OC (stereo unspecified)
Data returned: 0

Data request: Now try Cc1nn(Cc2ccc(C(=O)N3N=C(C(F)F)CC3(O)C(F)F)cc2)c(C)c1[N+](=O)[O-] (stereo unspecified) .
Data returned: 0

Data request: Next compound up: Cc1ccc(N2C(=O)CC(Nc3cccc4ccccc34)C2=O)cc1 (stereo unspecified)
Data returned: 1

Data request: Try this compound next: Cn1nccc1NC(=O)CC(CC(=O)O)c1ccccc1 (stereo unspecified)
Data returned: 0

Data request: Moving on to CC(=O)N/C(=C\c1ccc(F)cc1)C(=O)NC(Cc1ccccc1)C(=O)O (stereo unspecified)
Data returned: 0

Data request: Same for N[C@@H](Cc1ccccc1)C(=O)N1CCOCC1
Data returned: 0

Data request: Now try COc1ccc2[nH]cc(/C=C(/C#N)S(=O)(=O)c3ccccc3)c2c1 .
Data returned: 0

Data request: What would you report for Cc1cc([N+](=O)[O-])ccc1NC1CCCC1 ?
Data returned: 0

* * *

Assay: enhancers of RGS4 function in calcium signaling – cell-based, HEK293 M3R inducible RGS4, calcium flux, primary screen (AID 463111);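 for B-score: negative B-score means reduced calcium response which marks RGS4 activation or potentiation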
Conditions: HEK293 M3R/inducible RGS4, carbachol calcium flux Fluo4, at 10 µM; stronger effect = lower value
Hit rate of the full screen: of about 310,000 compounds, about 2,800 (0.9%) were called active. Only a selection was taken, and actives are over-represented in it overall.
measured_property: B-score

Consider the worked cases shown below.
molecule: COC(=O)c1sc(-c2ccc(C(C)(C)C)cc2)cc1NC(=O)/C=C/C(=O)O
result: -8.52 (active)

molecule: CN1CCN(CCCNC(=O)c2ccc(/C=C3\Oc4ccccc4N(Cc4ccc(Cl)cc4)C3=O)cc2)CC1
result: -7.39 (active)

molecule: Cc1ccc(C(=O)N/C(=C\c2cccs2)C(=O)NCCc2ccccn2)cc1C
result: inactive

molecule: Cc1nn(CC(=O)Nc2ccc(C#N)cc2)c(C)c1[N+](=O)[O-]
result: inactive

molecule: CCN1CCN(CCNC(=O)c2ccc(/C=C3/Sc4ccccc4N(Cc4cccc(C)c4)C3=O)cc2)CC1
result: -9.47 (active)

molecule: CCc1cccc(C)c1NS(=O)(=O)c1c(C)nc2sccn2c1=O
result: inactive

Data request: Any idea what its B-score is? The molecule is OC1CCCN(c2ncnc3c2nnn3Cc2c(F)cccc2Cl)C1 (stereo not given)
Data returned: inactive

Data request: Further, for O=C(NCCN1CCOCC1)c1ccc(/C=C2\Sc3ccccc3N(Cc3ccc(F)cc3)C2=O)cc1 ?
Data returned: inactive

Data request: // next record NS(=O)(=O)c1ccc(CCNS(=O)(=O)c2cccc3cccnc23)cc1
Data returned: inactive

Data request: What do you get for CCOC(=O)c1c(-c2ccccc2)csc1NC(=S)NC(=O)c1ccccc1 ?
Data returned: inactive

* * *

Test: enhancers of RGS4 function in calcium signaling – cell-based, HEK293 M3R inducible RGS4, calcium flux, primary screen (AID 463111)
Conditions: HEK293 M3R/inducible RGS4, carbachol calcium flux Fluo4, at 10 µM
The whole screen tested about 310,000 compounds, of which about 2,800 (0.9%) were called active.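 The calls were made as follows: active = B-score of the integrated calcium signal more than 4 SD below the library mean, with starting fluorescence not abnormally high; inactive = the rest.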 Shown is part of a subset that was picked to be rich in actives.
Outcome (select one): YES = active, NO = inactive

Record excerpt, results attached:
compound: Cc1ccc(C)c(N2CCN(C(=O)Cn3ncn4cccc4c3=O)CC2)c1
label_class: NO
//
compound: CN(C)c1ccc2c(=O)[nH][nH]c(=O)c2c1
label_class: NO
//
compound: COc1cccc(/C=N/Nc2cc(C)nc(-c3ccccc3O)n2)c1O
label_class: YES
//
compound: CCCN(CCC)c1nc2c(C)cccn2c(=O)c1/C=C1/SC(=S)N(Cc2ccco2)C1=O
label_class: NO

Next item in the queue.
Data request: Could you please tell me the result logged for CC(CC(=O)Nc1ccc(F)cc1F)S(=O)(=O)c1ccc2c(c1)NC(=O)CO2 (centres undefined) in this assay?
Data returned: NO

* * *

Assay: enhancers of RGS4 function in calcium signaling – cell-based, HEK293 M3R inducible RGS4, calcium flux, primary screen (AID 463111)
Settings: HEK293 M3R/inducible RGS4, carbachol calcium flux Fluo4, at 10 µM
Hit rate of the full screen: of about 310,000 compounds, about 2,800 (0.9%) were called active.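 How the source made its calls: active means B-score of the integrated calcium signal more than 4 SD below the library mean, with starting fluorescence not abnormally high; inactive means the rest.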 Many of the other results were omitted from the sample, so actives are more common in it than they were.
Log the outcome using a class from 1 (active), 0 (inactive)

Previously resolved entries follow.
molecule: Cc1cccc(C(C)C)c1NC(=O)COC(=O)C1CC(=O)N(Cc2ccccc2)C1 (stereo not drawn)
label_class: 0

molecule: CN(C)CCOc1ccc(Cl)cc1C(C)(C)C
label_class: 1

molecule: COc1cc(/C=C(\C#N)c2nc3ccccc3[nH]2)ccc1O
label_class: 1

molecule: CC1CN(/C=C/C(=O)C(F)(F)F)CC(C)O1 (stereo not drawn)
label_class: 0

molecule: O=C(c1ccc(F)c(S(=O)(=O)N2CCOCC2)c1)N(CCc1ccccc1)Cc1ccccc1
label_class: 0

molecule: Cc1cccc(-c2nc3ccc(C(=O)NCCN4CCN(C)CC4)cc3nc2-c2cccc(C)c2)c1
label_class: 1

molecule: CC(C)c1nnc(NC(=O)COC(=O)/C=C/c2ccc([N+](=O)[O-])cc2)s1
label_class: 0

molecule: OCCC1CN(Cc2ccc3nsnc3c2)CCN1C1CCCC1 (stereo not drawn)
label_class: 1

Data request: State the result this test recorded for CC(NC(=O)c1ccccc1SCC(=O)N1CCCC1)c1ccccc1 (stereo not drawn) .
Data returned: 0

* * *

Experiment: enhancers of RGS4 function in calcium signaling – cell-based, HEK293 M3R inducible RGS4, calcium flux, primary screen (AID 463111)
Conditions: HEK293 M3R/inducible RGS4, carbachol calcium flux Fluo4, at 10 µM
Screen size: about 310,000 compounds; about 2,800 (0.9%) were called active.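 How the source made its calls: active means B-score of the integrated calcium signal more than 4 SD below the library mean, with starting fluorescence not abnormally high; inactive means the rest.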 This excerpt belongs to a sample that is enriched for actives. Residues, ends and D or L forms follow the SMILES beside them. *: point of attachment. Bz = O=C(c1ccccc1)*
Use one of these outcomes when replying: active, inactive

Use the examples below as a reference point.
molecule: CN1CCN(C(=O)N2c3ccccc3CCc3ccccc32)CC1
label_class: active

molecule: O=C(NC(Cc1ccccc1)C(=O)N1CCCC(C(F)(F)F)C1)c1ccccc1 (stereo not drawn)
label_class: inactive

molecule: O=C(NCc1ccccc1)[C@H]1C[C@@H]1[C@H](NP(=O)(c1ccccc1)c1ccccc1)c1ccccc1
label_class: inactive

Here is the next item to consider.
Data request: Could you please tell me the result logged for O=C(NC(Cc1ccccc1)C(=O)N1CCCC1C(=O)O)c1ccccc1 (stereo not drawn) (Bz-Phe-Pro-OH; configuration not given here) in this assay?
Data returned: inactive
